Provide the reported Toxicity of each item.
# Test system: Madin Darby Canine Kidney (MDCK) cells
# Test description: Toxicity of materials in the influenza test (MDCK cells)
# Type: cell-based
# Assay context: Table 2
One number for each entry.

Consider the molecule `O=C([O-])O.[Na+]` . State its measured Toxicity.
0

Consider the molecule O=C(O)CC(O)C(=O)O (stereo not shown) . State its measured Toxicity.
6

Consider the molecule OO [Hydrogen Peroxide] . State its measured Toxicity.
6

***
Consider the molecule `O=C(O)CC(O)(CC(=O)O)C(=O)O` . State its measured Toxicity.
6
